Literature survey of pIC50 (system: Dual specificity protein kinase TTK (Homo sapiens)).
pIC50: −log10 of the molar value.
assay.metric: pIC50

See these solved cases before continuing.
COc1cc(C(=O)N2CC(OC)C2)ccc1Nc1cc2c(-c3c(C)noc3C)cccc2cn1; 6.58
CC(C)OC(=O)n1c(-c2cnn(C)c2)cc2cnc(Nc3ccc(-c4cnn(C)c4)cc3Cl)cc21; 7.77
Cn1cc(-c2cc3cnc(Nc4ccc(-n5cncn5)cc4Cl)cc3[nH]2)cn1; 7.26
Cn1cc(-c2ccc(Nc3cc4c(cn3)cc(-c3cnn(C)c3)n4C(=O)OC3CCCC3)c(Cl)c2)cn1; 7.92
COc1cc(N2CCOCC2)ccc1Nc1ncc2ccnc(NCC(C)(C)C)c2n1; 8.10
COc1cc(-c2cnn(C)c2)ccc1Nc1ncc2ccnc(NCC(C)(C)CO)c2n1; 8.40
COc1nc(-c2nnnn2C)ccc1Nc1ncc2ccnc(NCC(C)(C)OC)c2n1; 7.51
CN(C)C(=O)c1ccc(Nc2cc3c(cn2)cc(-c2cnn(C)c2)n3CC2CC2)c(Cl)c1; 7.52
COc1cc(-c2cnn(C)c2)ccc1Nc1ncc2ccnc(N3CC4(COC4)C3)c2n1; 8.52
COc1cc(CN2CCCC2)ccc1Nc1cc2c(cn1)cc(-c1cnn(C)c1)n2C(=O)OC(C)(C)C; 7.80

P = COc1cc(Cl)ccc1Nc1ncc2ccnc(N3CCC4(COC4)C3)c2n1
Q = CCNc1cncc(Nc2snc(C)c2C(=O)Nc2ccc(F)c(F)c2)n1
Exam item: Field: entry with larger pIC50 (options P / Q ). Please respond with the label that marks your chosen entry.
Marked response: P
(P: 7.62, Q: 4.80)

----------
Literature survey of IC50 (system: Dual specificity protein kinase TTK (Homo sapiens)).
assay.metric: IC50 (nM)

See these solved cases before continuing.
Cn1cc(-c2cc3cnc(Nc4ccc(C(=O)N5CCCC5)cc4Cl)cc3[nH]2)cn1; 12
COc1cc(C(=O)N2CC(OC)C2)ccc1Nc1cc2[nH]c(-c3cnn(C)c3)cc2cn1; 7

P = CN1CCN(c2ccc(Nc3ncc4cc(C#N)c(=O)n(C5CCCC5)c4n3)cc2)CC1
Q = COCCNC(=O)c1ccc(Nc2cc3c(cn2)cc(-c2cnn(C)c2)n3C(=O)OC(C)(C)C)c(OC)c1
R = COc1cc(-c2cnn(C)c2)ccc1Nc1ncc2ccnc(-c3cnn(C(C)C)c3)c2n1
S = FC(F)(F)c1ccc(Nc2cc3[nH]c(-c4cn[nH]c4)cc3cn2)cc1
Exam item: # sort list by recorded IC50, greatest to least Answer format: the labels, in the requested order.
Marked response: S, P, R, Q
(S: 1060 nM, P: 156 nM, R: 14 nM, Q: 9 nM)

----------
Literature survey of pIC50 (system: Dual specificity protein kinase TTK (Homo sapiens)).
pIC50: −log10 of the molar value.

Cn1cc(-c2ccc(Nc3nc(NC4C[C@H]5CC[C@@H]4C5)c4c(C#N)c[nH]c4n3)c3c2OCCO3)cn1 (stereo partly shown); > 7.30
Cc1nsc(Nc2ccc(C(F)(F)F)nn2)c1C(=O)Nc1ccc(F)c(F)c1; < 4.70
COc1cc(-c2cnn(C)c2)ccc1Nc1ncc2ccnc(N3CCOCC3)c2n1; 8.52

// below: pIC50 requested for another compound
Exam item: Which measured pIC50 belongs to `COc1cc(-c2cccc(O)c2)ccc1Nc1nc(NC2CCOCC2)c2c(C#N)c[nH]c2n1` , tested on Dual specificity protein kinase TTK (Homo sapiens)?
Marked response: > 7.30

----------
Literature survey of IC50 (system: Dual specificity protein kinase TTK (Homo sapiens)).
assay.metric: IC50 (nM)

See these solved cases before continuing.
COc1cc(C(=O)N2CCN(C)CC2)ccc1Nc1ncc2ccnc(NCC(C)(C)OC)c2n1; 8
Cn1cc(-c2cc3cnc(Nc4ccc(-c5nncn5C)cc4Cl)cc3n2C(=O)OC(C)(C)C)cn1; 1
CCOc1cc(-c2nncn2C)ccc1Nc1nc(NCC(C)(C)C)c2cccn2n1; 27
CN1CCN(C(=O)c2ccc(Nc3cc4[nH]c(-c5cnn(C)c5)cc4cn3)c(Cl)c2)CC1; 20

I = CCOc1cc(-c2nncn2C)ccc1Nc1ncc2ccnc(NCC3(C)CCOC3)c2n1 (centres unmarked)
II = CCOc1cc(-c2nncn2C)ccc1Nc1ncc2cc(C)nc(N3CC4(CCOC4)C3)c2n1
Exam item: Field: entry with larger IC50 (options I / II ). Please respond with the label that marks your chosen entry.
Marked response: II
(II: 3 nM, I: 1 nM)

----------
Literature survey of pIC50 (system: Dual specificity protein kinase TTK (Homo sapiens)).
pIC50: −log10 of the molar value.

See these solved cases before continuing.
CCOC(=O)c1cnc(Nc2snc(C)c2C(=O)Nc2ccc(OC)nc2)s1; < 4.70
O=C(c1ccc(Nc2cc(C3CC3)c3c(C(F)(F)F)c[nH]c3n2)c2c1CCO2)N1CC[C@@H](N2CCOCC2)C1; > 7.00

Exam item: Which measured pIC50 belongs to `COCCNc1nc(Nc2ccc(C(=O)N3CCN(C4COC4)CC3)c3c2OCCO3)nc2[nH]cc(C(F)(F)F)c12` , tested on Dual specificity protein kinase TTK (Homo sapiens)?
Marked response: > 7.00

Exam item: Which measured pIC50 belongs to `Cc1cc(Cn2c(-c3cnn(C)c3)cc3cnc(Nc4ccc(C(=O)N(C)C)cc4Cl)cc32)no1` , tested on Dual specificity protein kinase TTK (Homo sapiens)?
Marked response: 6.46

----------
Literature survey of pIC50 (system: Dual specificity protein kinase TTK (Homo sapiens, UniProt P33981)).
pIC50: −log10 of the molar value.

See these solved cases before continuing.
Cn1nccc1-c1ccc(Nc2nc(C3=CCCCC3)c3c(C#N)c[nH]c3n2)c2c1OCCO2; 6.70 to 7.30
Cc1nsc(Nc2cnccn2)c1C(=O)Nc1ccc(F)c(F)c1; < 4.70
COc1cc(C(=O)N2CC(OC)C2)ccc1Nc1cc2c(-c3cnn(C)c3C)cccc2cn1; 7.92

// below: pIC50 requested for another compound
Exam item: Which measured pIC50 belongs to `COc1cc(-c2ncn(C)n2)ccc1Nc1nc(NC2CCCCC2)c2c(C#N)c[nH]c2n1` , tested on Dual specificity protein kinase TTK (Homo sapiens, UniProt P33981)?
Marked response: > 7.30

----------
Literature survey of IC50 (system: Dual specificity protein kinase TTK (Homo sapiens, UniProt P33981)).

COC(=O)n1c(-c2cnn(C)c2)cc2cnc(Nc3ccc(-c4cnc(C)n4C)cc3Cl)cc21; 7 nM
COc1cc(-c2c(C)noc2C)ccc1Nc1nc(NC2CCCCCC2)c2c(C#N)c[nH]c2n1; 50 to 200 nM
CNc1cc(Nc2ccc(C(=O)N3CC[C@H](N4CCOCC4)C3)c3c2OCC3)nc2[nH]cc(C(F)(F)F)c12; < 100 nM
COCCn1c(-c2ccc(Nc3ncc4cc(C)nc(NCC(C)(C)C)c4n3)c(OC)c2)cnc1C; 19.4 nM
COc1ccc(NC(=O)c2c(C)nsc2Nc2nc3cccnc3s2)cn1; > 20000 nM

Exam item: Which measured IC50 belongs to `Fc1ccc(Nc2cc3[nH]c(-c4cn[nH]c4)cc3cn2)nc1` , tested on Dual specificity protein kinase TTK (Homo sapiens, UniProt P33981)?
Marked response: 159 nM

Exam item: Which measured IC50 belongs to `O=C(c1ccc(Nc2nc(NC3CCCCC3)c3c(C(F)(F)F)c[nH]c3n2)c2c1OCCO2)N1CCN(C2COC2)CC1` , tested on Dual specificity protein kinase TTK (Homo sapiens, UniProt P33981)?
Marked response: < 100 nM

Exam item: Which measured IC50 belongs to `CN(C)C(=O)c1ccc(Nc2cc3[nH]c(-c4cnco4)c(Cl)c3cn2)c(Cl)c1` , tested on Dual specificity protein kinase TTK (Homo sapiens, UniProt P33981)?
Marked response: 3 nM

Exam item: Which measured IC50 belongs to `Cc1nsc(Nc2ccc(C#N)cn2)c1C(=O)Nc1ccc(Cl)c(F)c1` , tested on Dual specificity protein kinase TTK (Homo sapiens, UniProt P33981)?
Marked response: > 20000 nM

Exam item: Which measured IC50 belongs to `COc1cc(Nc2nc(NC3CCCCC3)c3c(C#N)c[nH]c3n2)ccc1-c1cnn(C)c1` , tested on Dual specificity protein kinase TTK (Homo sapiens, UniProt P33981)?
Marked response: 50 to 200 nM

Exam item: Which measured IC50 belongs to `CCOc1cc(-c2nncn2C)ccc1Nc1ncc2ccc(-c3cnn(C)c3)n2n1` , tested on Dual specificity protein kinase TTK (Homo sapiens, UniProt P33981)?
Marked response: 2.1 nM

Exam item: Which measured IC50 belongs to `COc1cc(C(=O)N2CCOCC2)ccc1Nc1cc2[nH]c(-c3cnn(C)c3)cc2cn1` , tested on Dual specificity protein kinase TTK (Homo sapiens, UniProt P33981)?
Marked response: 12 nM

Exam item: Which measured IC50 belongs to Cn1nccc1-c1ccc(Nc2nc(NC3CCCC(F)(F)C3)c3c(C#N)c[nH]c3n2)c2c1OCCO2 (stereo not shown) , tested on Dual specificity protein kinase TTK (Homo sapiens, UniProt P33981)?
Marked response: 50 to 200 nM

Exam item: Which measured IC50 belongs to `Cc1nsc(Nc2cnc3ccccc3n2)c1C(=O)Nc1ccc(OC2CCCCC2)nc1` , tested on Dual specificity protein kinase TTK (Homo sapiens, UniProt P33981)?
Marked response: > 20000 nM

Exam item: Which measured IC50 belongs to `CCNc1nc(Nc2ccc(S(=O)(=O)N3CCC(N4CCOCC4)CC3)c3c2OCCO3)nc2[nH]cc(C(F)(F)F)c12` , tested on Dual specificity protein kinase TTK (Homo sapiens, UniProt P33981)?
Marked response: < 100 nM

Exam item: Which measured IC50 belongs to `CNc1nc(Nc2ccc(-c3ccnn3C)c3c2OCCO3)nc2[nH]cc(C#N)c12` , tested on Dual specificity protein kinase TTK (Homo sapiens, UniProt P33981)?
Marked response: < 50 nM
